Values compiled from patent US12312411.

Biological target: cynomolgus CD38 on cells expressing recombinant cynomolgus CD38 (cynomolgus, UniProt Q5VAN0 1-301)
observable: FOB (fold-over-background of MFI) (fold over background)
One number for each entry, in fold over background.

Past entries and their recorded results:
binder	value-observed
CD38TM2 formatted into human IgG1 (antibody, V domains shown) VH: EVQLLESGGGLVQPGGSLRLSCAASGFTFSSYWMHWVRQAPGKGLEWVSAISGSGGGTFYADSVKGRFTISRDNSKNTLYLQMNSLRAEDTAVYYCAREGETSFGLDVWGQGTLVTVSS VL: QSVLTQPPSASGTPGQRVTISCSGSSSNIGGNYVYWYQQLPGTAPKLLIYRNNQRPSGVPDRFSGSKSGTSASLAISGLRSEDEADYYCQSYDSSLSVSVFGGGTKLTVLG	272
CD38TM5 formatted into human IgG1 (antibody, V domains shown) VH: EVQLLESGGGLVQPGGSLRLSCAASGFTFSDYYMNWIRQAPGKGLEWVSSISSSSSYIYYADSVKGRFTISRDNSKNTLYLQMNSLRAEDTAVYYCATEGPYYLYGFDIWGQGTLVTVSS VL: QSVLTQPPSASGTPGQRVTISCSGSSSNIGSNYVYWYQQLPGTAPKLLIYGNSNRPSGVPDRFSGSKSGTSASLAISGLRSEDEADYYCQSYDNTLSGVIFGGGTKLTVLG	104

Prompt: Would you kindly share the measured FOB (fold-over-background of MFI) for CD38TM6 formatted into human IgG1 (antibody, V domains shown) VH: EVQLLESGGGLVQPGGSLRLSCAASGFTFDDYGMTWVRQAPGKGLEWVSGINWNGGSTGYADSVKGRFTISRDNSKNTLYLQMNSLRAEDTAVYYCARGGLFHDSSGYYFGHWGQGTLVTVSS VL: QSVLTQPPSASGTPGQRVTISCSGSSSNIGNSYVSWYQQLPGTAPKLLIYRNNQRPSGVPDRFSGSKSGTSASLAISGLRSEDEADYYCSAWDDNLSVLFGGGTKLTVL ?
Response: 176
